Entry source: ChEMBL document CHEMBL1201862

test system: K562; experiment: NCI tumour cell line growth inhibition, 48 h
Calls of active or inactive are those of the source. Rule as the data show it: active = GI50 up to about 1.1 µM and inactive = higher.
Recorded GI50, one value per entry.

In the examples that follow, each entry is paired with its recorded GI50.
[[record]]
compound = "CCCNC1=Nc2ccccc2N(Cc2ccccc2)CC1"
assay_endpoint = "GI50"
test_result = "5.57 µM (inactive)"

[[record]]
compound = "CC(C)C(OC(=O)c1cc(NC(=S)c2ccccc2)ccc1Cl)C(C)C"
assay_endpoint = "GI50"
test_result = "25.7 µM (inactive)"

[[record]]
compound = "CCOC(=O)C(=Cc1ccc(C(=O)OC)cc1)C(=O)OCC"
assay_endpoint = "GI50"
test_result = "2.32 µM (inactive)"

[[record]]
compound = "CC(=O)SC(SC(C)=O)SC(C)=O"
assay_endpoint = "GI50"
test_result = "54.5 µM (inactive)"


Please find the next compound below.
Q: Give reported GI50 value for COC(=O)C1=C(OC(=O)c2ccccc2)C(C(=O)OC)[C@]2(O)[C@@H](C(=O)OC)[C@H]1C[C@@H](c1ccccc1)[C@@H]2C(=O)OC (stereo not given in full)
A: 3.33 µM (inactive)
